Where these numbers come from: paper PMC8910649

System: ECF FolT transporter
Assay: Bacterial (whole-cell) folate uptake assay in L. casei
Conditions: 200 μM, folate import, L. casei based uptake assay
value_type: Inhibition at 200 μM (%)
Give bare numbers, in %.

>>> value_observed("O=C(O)c1cccc(NCc2ccc(-c3cccc(Cl)c3)o2)c1")
41

Provide Inhibition at 200 μM values for the following items, in order.
1. O=C(O)c1cccc(NCc2ccc(-c3ccccc3Cl)o2)c1
2. O=C(O)c1cccc(NCc2cc(-c3ccc(Cl)cc3)co2)c1

Data returned:
1. 36
2. 8

----------
Test: Solubility of the compounds in citrate buffer (assay conditions)
Assay type: physicochemical
Conditions: citrate buffer with 5% DMSO, 96-well plates, pH 6, aqueous with cosolvent or surfactant or cyclodextrin, kinetic from dmso stock, citrate buffer, read-out: solubility limit (not soluble above)
value_type: solubility

Data request: Please report the recorded solubility for "O=C(O)c1ccccc1NCc1ccc(-c2ccc(Cl)cc2)o1" .
Data returned: ≤ 50 µM
